Data origin: ChEMBL document CHEMBL5120946

assay: Metabolic stability in pooled mouse liver microsomes assessed as half life; assay type: ADME, Microsome; details: pooled mouse liver microsomes
measurement kind: half-life (min)
Report the figure in min without appending any unit label.

stdin: Which half-life value belongs to `CCS(=O)(=O)Nc1ccc(OCCOCCOCCOCCOc2ccc(NS(=O)(=O)CC)cc2-c2cn(C)c(=O)c3ccccc23)c(-c2cn(C)c(=O)c3ccccc23)c1` ?
stdout: 11

###

target: Bromodomain testis-specific protein (Homo sapiens, UniProt Q58F21); assay: Binding affinity to N-terminal hexa-histidine tagged BRDT-T (2 to 416 residues) (unknown origin) expressed in Escherichia coli BL21(DE3) cells
measurement kind: Kd (pM)

I: Cc1cnc(Nc2ccc(C(=O)NC3CCNCC3)c(F)c2)nc1Nc1cc(NS(=O)(=O)C(C)(C)C)cc(C(=O)NCCOCCOCCOCCC(=O)N2CCC(NC(=O)c3ccc(Nc4ncc(C)c(Nc5ccc(Cl)c(NS(=O)(=O)C(C)(C)C)c5)n4)cc3F)CC2)c1
II: Cc1cnc(Nc2ccc(C(=O)NC3CCN(C(=O)COCCOCC(=O)N4CCC(NC(=O)c5ccc(Nc6ncc(C)c(Nc7ccc(Cl)c(NS(=O)(=O)C(C)(C)C)c7)n6)cc5F)CC4)CC3)c(F)c2)nc1Nc1ccc(Cl)c(NS(=O)(=O)C(C)(C)C)c1
III: CCS(=O)(=O)Nc1ccc(OCCOCCOCCOCCOc2ccc(NS(=O)(=O)CC)cc2-c2cn(C)c(=O)c3ccccc23)c(-c2cn(C)c(=O)c3ccccc23)c1
stdin: Put the items in order so that reported Kd rises from first to last. Form entry: labels listed in requested order.
stdout: III, II, I
